The reader will find reported IC50 values listed item by item below.
Tested on: A549 human lung adenocarcinoma cells
ASSAY EXPLANATION: cell proliferation assay, A549
Assay type: cell-based
CONDITION INFO: Table 3 summary of most active compounds, read-out: A549 Lung (+p53)

# example entries with known answers
>  <COMPOUND>
CON(C(C)CC(c1ccccc1)c1c(O)c2ccccc2oc1=O)C1OC(C)C(O)C(O)C1O (mixture of isomers) [WARF Analog 12]

>  <TARGET OF ASSAY>
A549 human lung adenocarcinoma cells

>  <IC50>
> 100 µM

$$$$
>  <COMPOUND>
CON(C(C)CC(c1ccccc1)c1c(O)c2ccccc2oc1=O)C1OC(C)C(O)C(O)C1O (mixture of isomers) [WARF Analog 50]

>  <TARGET OF ASSAY>
A549 human lung adenocarcinoma cells

>  <IC50>
> 100 µM

$$$$

Turning now to a further compound:
Recorded IC50 (compound CON(C(C)CC(c1ccccc1)c1c(O)c2ccccc2oc1=O)C1CC(C)(O)C(O)C(C)O1 (mixture of isomers) ): > 100 µM

* * *

System: A549 human lung adenocarcinoma cells
ASSAY EXPLANATION: cell proliferation assay, A549
Type: cell-based
CONDITION INFO: Table 3 summary of most active compounds, read-out: A549 Lung (+p53)
pIC50: −log10 of the molar value.
MEASURED METRIC: pIC50

Consider the reported pIC50 for these molecules:
>  <MOLECULE>
CON(C(C)CC(c1ccccc1)c1c(O)c2ccccc2oc1=O)C1C[C@@H](O)[C@@H](O)CO1 (stereo partly drawn) [WARF Analog 10]

>  <pIC50>
< 4.00

$$$$
>  <MOLECULE>
CON(C(C)CC(c1ccccc1)c1c(O)c2ccccc2oc1=O)C1O[C@H](COCc2ccccc2)[C@@H](OCc2ccccc2)[C@@H]1OCc1ccccc1 (stereo partly drawn) [WARF Analog 42]

>  <pIC50>
4.57

$$$$

Measured pIC50, CON(C(C)CC(c1ccccc1)c1c(O)c2ccccc2oc1=O)C1CC(O)C(O)CO1 (mixture of isomers) [WARF Analog 11] : < 4.00

* * *

Tested on: SF-268 human CNS adenocarcinoma cells
ASSAY EXPLANATION: cell proliferation assay, SF-268
Format: cell-based
CONDITION INFO: Table 3 summary of most active compounds; IC50; listed as L-arabinose; read-out: SF268 Giloblast
MEASURED METRIC: IC50 (µM)
Write the value in µM as a bare number.

Lab note: compound CON(C(C)CC(c1ccccc1)c1c(O)c2ccccc2oc1=O)C1OCC(O)C(O)C1O (mixture of isomers) tested on SF-268 human CNS adenocarcinoma cells; recorded IC50 was 69

* * *

Test system: HT-29 human colorectal adenocarcinoma cells
ASSAY EXPLANATION: cell proliferation assay, HT-29
Format: cell-based
CONDITION INFO: Table 3 summary of most active compounds; IC50; listed as L-lyxose; read-out: H729 Colorectal
Description: In this Example, the warfarin neoglycosides of the invention were screened for anti-tumor activity in cell proliferation assays using the following tumor cells lines: A549—human lung adenocarcinoma; H1299—human lung adenocarcinoma (p53 null); HCT-15—human colorectal adenocarcinoma; HT-29—human colorectal adenocarcinoma; MCF7—human breast adenocarcinoma; NCI-H460—human lung adenocarcinoma; SF-268—human CNS adenocarcinoma; and SKOV-3—human ovarian adenocarcinoma. […]
MEASURED METRIC: pIC50
# pIC50: negative log10 of molar concentration; output just the value

According to the records, this compound CON(C(C)CC(c1ccccc1)c1c(O)c2ccccc2oc1=O)C1OCC(O)C(O)C1O (mixture of isomers) displays pIC50 of 4.33
